# Tested on: microorganisms
# experimental.details: Morphology, biofilm and growth disrupting peptides (Table 5)
# Assay type: cell-based
# Parameters: key: A: Peptide aggregates; B: Less hyphal formation; Clumps; Diffuse clumps and small polyps; F: Diffuse growth; H: Thin; I: Growth inhibition; Microcolony formation; Rippled; Small polyps; Thick; W: Halo formation on top, microlonies on bottom
# experimental.parameters: S. pneumoniae
Ends that are not written are not given here.

substance	Organism, effect
PF-696 (IRSGISAAYARPLR; Peptide with targeting and/or antimicrobial activity)	S. pneumoniae (H)
PF-581: peptide having multiple activities (WTARARR; Peptide with targeting and/or antimicrobial activity)	S. pneumoniae (A)
PF-515: peptide having multiple activities (DKSTQDKDIKQAKLLAQELGL-NH2)	S. pneumoniae (H)
PF-485 (KNSMSRSIALID; Peptide with targeting and/or antimicrobial activity)	S. pneumoniae (A)
PF-622: peptide having multiple activities (chain 1 TREDVFSVRLINNIVNKQA; chain 2 TREDVFSVRLINNIVNKQA; Peptide with targeting and/or antimicrobial activity)	S. pneumoniae (M)
PF-577: peptide having multiple activities (PFETRESFRVPVIGILGGWDYFMHP; Peptide with targeting and/or antimicrobial activity)	S. pneumoniae (R)
LGLTAGVAYAAQPTNQPTNQPTNQPTNQPTNQPTNQPRW-NH2 [PF-520]	S. pneumoniae (M)
PF-681: peptide having multiple activities (TALTTVGVSGARLITYCVGVEDI; Peptide with targeting and/or antimicrobial activity)	S. pneumoniae (M)
FESKILNASKELDKEKKVNTALSFNSHQDFAKAYQNGKI [PF-606]	S. pneumoniae (H)
PF-572: peptide having multiple activities (WRASKGLPGFKAG; Peptide with targeting and/or antimicrobial activity)	S. pneumoniae (R)

====

# Tested on: microorganisms
# experimental.details: Morphology, biofilm and growth disrupting peptides (Table 5)
# Type: cell-based
# Parameters: key: A: Peptide aggregates; B: Less hyphal formation; Clumps; Diffuse clumps and small polyps; F: Diffuse growth; H: Thin; I: Growth inhibition; Microcolony formation; Rippled; Small polyps; Thick; W: Halo formation on top, microlonies on bottom
# experimental.parameters: S. epidermidis

substance	Organism, effect
PF-478: peptide having multiple activities (HLFILKSHLKPFPPFRYTYD; Peptide with targeting and/or antimicrobial activity)	S. epidermidis (C)
PF-685 (PTLWLACL; Peptide with targeting and/or antimicrobial activity)	S. epidermidis (M)
PF-760: peptide having multiple activities (DHITLDDYEIHDGFNFELYYG; Peptide with targeting and/or antimicrobial activity)	S. epidermidis (M)
PF-610: peptide having multiple activities (chain 1 VFLKLKTSKIDLASIIFYP; chain 2 VFLKLKTSKIDLASIIFYP; Peptide with targeting and/or antimicrobial activity)	S. epidermidis (C)
PF-432: peptide having multiple activities (chain 1 FNGDSEFFLCIAF; chain 2 FNGDSEFFLCIAF; Peptide with targeting and/or antimicrobial activity)	S. epidermidis (M)

====

# Tested on: microorganisms
# experimental.details: Morphology, biofilm and growth disrupting peptides (Table 5)
# Type: cell-based
# Set-up: key: A: Peptide aggregates; B: Less hyphal formation; Clumps; Diffuse clumps and small polyps; F: Diffuse growth; H: Thin; I: Growth inhibition; Microcolony formation; Rippled; Small polyps; Thick; W: Halo formation on top, microlonies on bottom
# experimental.parameters: S. pneumoniae
metric.name: Organism, effect

substance	measurement
PF-660 (chain 1 TDPQATAAPRRRTSPR; chain 2 TDPQATAAPRRRTSPR; Peptide with targeting and/or antimicrobial activity)	S. pneumoniae (H)
PF-744: peptide having multiple activities (LGVGTFVGKVLIKNQQKQKSKKKAQ; Peptide with targeting and/or antimicrobial activity)	S. pneumoniae (H)

Data provenance: patent US20110039763A1
